Test: Antiproliferative activity against human DU145 cells after 72 hrs by MTT assay
Assay type: functional, cell-based
Conditions: DU-145, 72 h
pIC50: −log10 of the molar value. Starred links: 1 amine or outer side, 2 acyl side, 3 side chain; linkers in the order of their positions; H or OH if unused. Non-standard residues stand in square brackets, D forms with d. Residues, ends and D or L forms follow the SMILES beside them. *: point of attachment. X3 = NP(=O)(OCc1c(F)cc(N*)cc1F)N(CCCl)CCCl; Glutaryl = O=C(CCCC(=O)[*:2])[*:1]; Hyp = O=C(O)[C@@H]1C[C@@H](O)CN1; Chg = N[C@H](C(=O)O)C1CCCCC1

| Molecule | pIC50 |
| --- | --- |
| C[C@H](NC(=O)[C@@H]1C[C@@H](O)CN1C(=O)CCCC(=O)O)C(=O)N[C@@H](CO)C(=O)N[C@H](C(=O)N[C@@H](CCC(N)=O)C(=O)Nc1cc(F)c(COP(N)(=O)N(CCCl)CCCl)c(F)c1)C1CCCCC1 (stereo partly specified) (Glutaryl-[Hyp]AS[Chg]Q-X3) | < 4.00 |

====

Measured IC50 of individual entries
System: LNCaP
Test: Antiproliferative activity against human LNCAP cells expressing prostate specific antigen after 72 hrs by MTT assay
Assay type: functional, cell-based
Starred links: 1 amine or outer side, 2 acyl side, 3 side chain; linkers in the order of their positions; H or OH if unused. Non-standard residues stand in square brackets, D forms with d. Residues, ends and D or L forms follow the SMILES beside them. *: point of attachment. X1 = NP(=O)(OCc1c(F)c(F)c(N*)c(F)c1F)N(CCCl)CCCl; X3 = NP(=O)(OCc1c(F)cc(N*)cc1F)N(CCCl)CCCl; X2 = NP(=O)(OCc1ccc(N*)c(F)c1)N(CCCl)CCCl; X5 = NP(=O)(OCc1ccc(N*)cc1F)N(CCCl)CCCl; X4 = NP(=O)(OCc1ccc(N*)cc1)N(CCCl)CCCl; Glutaryl = O=C(CCCC(=O)[*:2])[*:1]; Hyp = O=C(O)[C@@H]1C[C@@H](O)CN1; Chg = N[C@H](C(=O)O)C1CCCCC1

| Compound | Value Qualifier | IC50 [µM] |
| --- | --- | --- |
| COc1cccc2c1C(=O)c1c(O)c3c(c(O)c1C2=O)C[C@](O)(C(=O)CO)C[C@H]3O[C@@H]1C[C@@H](NC(=O)[C@@H](CC(C)C)NC(=O)[C@@H](CO)NC(=O)[C@@H](CCC(N)=O)NC(=O)[C@H](NC(=O)[C@@H](CO)NC(=O)[C@@H](C)NC(=O)[C@@H]2C[C@@H](O)CN2C(=O)CCCC(=O)O)C2CCCCC2)[C@@H](O)[C@@H](C)O1 (stereo in doubt) | = | 1.1 |
| C[C@H](NC(=O)[C@@H]1C[C@@H](O)CN1C(=O)CCCC(=O)O)C(=O)N[C@@H](CO)C(=O)N[C@H](C(=O)N[C@@H](CCC(N)=O)C(=O)Nc1c(F)c(F)c(COP(N)(=O)N(CCCl)CCCl)c(F)c1F)C1CCCCC1 (stereo partly specified) (Glutaryl-[Hyp]AS[Chg]Q-X1) | > | 100 |
| C[C@H](NC(=O)[C@@H]1C[C@@H](O)CN1C(=O)CCCC(=O)O)C(=O)N[C@@H](CO)C(=O)N[C@H](C(=O)N[C@@H](CCC(N)=O)C(=O)Nc1cc(F)c(COP(N)(=O)N(CCCl)CCCl)c(F)c1)C1CCCCC1 (stereo partly specified) (Glutaryl-[Hyp]AS[Chg]Q-X3) | = | 20 |
| C[C@H](NC(=O)[C@@H]1C[C@@H](O)CN1C(=O)CCCC(=O)O)C(=O)N[C@@H](CO)C(=O)N[C@H](C(=O)N[C@@H](CCC(N)=O)C(=O)Nc1ccc(COP(N)(=O)N(CCCl)CCCl)cc1)C1CCCCC1 (stereo partly specified) (Glutaryl-[Hyp]AS[Chg]Q-X4) | = | 11 |
| C[C@H](NC(=O)[C@@H]1C[C@@H](O)CN1C(=O)CCCC(=O)O)C(=O)N[C@@H](CO)C(=O)N[C@H](C(=O)N[C@@H](CCC(N)=O)C(=O)Nc1ccc(COP(N)(=O)N(CCCl)CCCl)c(F)c1)C1CCCCC1 (stereo partly specified) (Glutaryl-[Hyp]AS[Chg]Q-X5) | = | 5.3 |
| C[C@H](NC(=O)[C@@H]1C[C@@H](O)CN1C(=O)CCCC(=O)O)C(=O)N[C@@H](CO)C(=O)N[C@H](C(=O)N[C@@H](CCC(N)=O)C(=O)Nc1ccc(COP(N)(=O)N(CCCl)CCCl)cc1F)C1CCCCC1 (stereo partly specified) (Glutaryl-[Hyp]AS[Chg]Q-X2) | = | 29 |
